Test system: 72 kDa type IV collagenase (Homo sapiens)
Sequence (P08253 whole entry): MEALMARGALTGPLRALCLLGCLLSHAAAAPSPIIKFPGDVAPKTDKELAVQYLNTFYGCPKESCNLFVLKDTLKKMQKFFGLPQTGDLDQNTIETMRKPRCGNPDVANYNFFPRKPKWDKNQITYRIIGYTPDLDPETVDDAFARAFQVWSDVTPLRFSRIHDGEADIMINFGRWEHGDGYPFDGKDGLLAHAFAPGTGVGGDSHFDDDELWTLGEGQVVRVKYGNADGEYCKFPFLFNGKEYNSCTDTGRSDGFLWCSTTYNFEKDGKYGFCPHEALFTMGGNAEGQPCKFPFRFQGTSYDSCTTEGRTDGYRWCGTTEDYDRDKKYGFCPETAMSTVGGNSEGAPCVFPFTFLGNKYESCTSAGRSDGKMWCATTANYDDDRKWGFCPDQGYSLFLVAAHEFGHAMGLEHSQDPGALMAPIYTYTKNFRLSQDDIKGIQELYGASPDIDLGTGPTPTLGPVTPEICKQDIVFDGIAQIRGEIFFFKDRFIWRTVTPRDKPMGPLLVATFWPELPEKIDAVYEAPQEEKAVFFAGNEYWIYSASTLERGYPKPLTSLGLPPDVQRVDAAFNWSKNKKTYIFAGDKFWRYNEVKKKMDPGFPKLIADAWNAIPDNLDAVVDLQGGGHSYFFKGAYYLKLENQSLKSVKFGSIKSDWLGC
Assay protocol: Dose Response validation of uHTS RPN11 inhibitor hits using a MMP-2 Fluorescence assay.
Format: functional
The source made the active and inactive calls. No stated cut-off is given here; in the data, actives have a measured IC50 and inactives only a lower limit.
A correct response names exactly one class from active, inactive

Here's what some known entries look like.
Dear all, I need the recorded test outcome for Cc1ccc(-n2cccc2/C=C2/C(=N)N3C(=NC2=O)SN=C3S(C)(=O)=O)cc1Cl , thank you. inactive

Dear all, I need the recorded test outcome for COc1cc(NS(=O)(=O)c2ccc(NC(=S)NC(=O)/C=C/c3ccco3)cc2)ncn1 , thank you. active

Dear all, I need the recorded test outcome for COc1cc(/C=C2/SC(=S)N(c3c(C)n(C)n(-c4ccccc4)c3=O)C2=O)ccc1O , thank you. active

Dear all, I need the recorded test outcome for NC(=O)CC(NC(=O)c1ccc(Br)cc1)c1ccc(NC2CCCCCC2)c([N+](=O)[O-])c1 (stereo unspecified) , thank you. inactive

Dear all, I need the recorded test outcome for Sc1nnc(-c2cc(-c3ccccc3)[nH]n2)n1/N=C/c1cccc(Cl)c1 , thank you. inactive

---
Dear all, I need the recorded test outcome for COc1ccc(C=C2SC(=S)N(CCCC(=O)Nc3ccc(C(=O)O)c(O)c3)C2=O)cc1OC , thank you. inactive
